Target: 5-hydroxytryptamine receptor 1A (Rattus norvegicus, UniProt P19327)
Sequence (P19327 whole entry): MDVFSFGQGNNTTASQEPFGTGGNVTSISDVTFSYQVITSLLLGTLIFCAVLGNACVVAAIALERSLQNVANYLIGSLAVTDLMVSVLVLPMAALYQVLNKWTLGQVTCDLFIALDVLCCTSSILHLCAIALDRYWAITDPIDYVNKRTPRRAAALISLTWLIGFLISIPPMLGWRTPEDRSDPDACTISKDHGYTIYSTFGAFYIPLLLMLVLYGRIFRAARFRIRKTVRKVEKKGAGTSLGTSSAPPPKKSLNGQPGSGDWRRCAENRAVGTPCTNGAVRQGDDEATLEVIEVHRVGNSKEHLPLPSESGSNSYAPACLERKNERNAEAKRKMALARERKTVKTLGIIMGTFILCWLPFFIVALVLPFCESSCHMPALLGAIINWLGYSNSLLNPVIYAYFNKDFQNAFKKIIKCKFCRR
pKi: −log10 of the molar value.

compound	pKi
O=C1CCC(=O)N1C1CCC(N2CCN(c3cccc(C(F)(F)F)c3)CC2)CC1 (stereo unspecified) [1-(m-trifluorophenyl)piperazine, 4]	8.40
